Observed IC50 values for urease (Canavalia ensiformis) are listed in what follows.
Dear colleague, please return just the value in µM, with no unit written.

Illustrative cases are given below, each with its answer.
Ask | For the record CC(c1ccc(-c2ccccc2)c(F)c1)c1nnc(-c2ccc(Br)cc2)o1 (stereo not shown) , what value of IC50 is listed for urease (Canavalia ensiformis)?
Reply | 13

Ask | Checklist item: IC50 tested on urease (Canavalia ensiformis), entry CC(c1ccc(-c2ccccc2)c(F)c1)c1nnc(-c2cccc3ccccc23)o1 (stereo not shown) , value?
Reply | 39

Ask | Item CC(c1ccc(-c2ccccc2)c(F)c1)c1nnc(-c2ccc(O)c(Br)c2)o1 (stereo not shown) with urease (Canavalia ensiformis) - IC50?
Reply | 14

Could you now look at the following compound, please?
Ask | Checklist item: IC50 tested on urease (Canavalia ensiformis), entry COc1cc(-c2nnc(C(C)c3ccc(-c4ccccc4)c(F)c3)o2)ccc1Oc1ccccc1 (stereo not shown) , value?
Reply | 16

====

- Target system: urease (Canavalia ensiformis)
- Sequence (P07374 whole entry, looked up): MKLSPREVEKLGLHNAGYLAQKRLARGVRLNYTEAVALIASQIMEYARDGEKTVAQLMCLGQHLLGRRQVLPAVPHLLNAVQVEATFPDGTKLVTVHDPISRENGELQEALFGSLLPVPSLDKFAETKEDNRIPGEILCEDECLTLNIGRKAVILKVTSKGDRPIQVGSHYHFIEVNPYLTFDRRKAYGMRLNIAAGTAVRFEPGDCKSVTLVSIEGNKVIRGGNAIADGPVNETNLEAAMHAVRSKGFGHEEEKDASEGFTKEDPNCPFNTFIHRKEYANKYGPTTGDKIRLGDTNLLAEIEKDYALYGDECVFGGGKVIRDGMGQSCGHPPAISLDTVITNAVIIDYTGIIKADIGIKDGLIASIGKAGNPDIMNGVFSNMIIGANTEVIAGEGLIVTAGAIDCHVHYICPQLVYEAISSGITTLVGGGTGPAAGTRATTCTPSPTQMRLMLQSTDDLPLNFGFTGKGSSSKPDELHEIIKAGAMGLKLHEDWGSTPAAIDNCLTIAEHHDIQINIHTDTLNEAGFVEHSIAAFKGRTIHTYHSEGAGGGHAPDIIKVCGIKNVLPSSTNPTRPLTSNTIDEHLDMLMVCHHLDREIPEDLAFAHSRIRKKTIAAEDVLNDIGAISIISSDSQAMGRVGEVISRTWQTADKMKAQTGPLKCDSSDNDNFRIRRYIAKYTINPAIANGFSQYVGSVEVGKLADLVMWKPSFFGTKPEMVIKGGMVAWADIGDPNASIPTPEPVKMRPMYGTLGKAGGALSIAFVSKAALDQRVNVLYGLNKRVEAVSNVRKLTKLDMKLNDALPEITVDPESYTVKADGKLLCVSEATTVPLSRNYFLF
Recorded metric: pIC50
Notebook: values listed as pIC50 are -log10 of the concentration (mol/L).

Ask | Lab note: need pIC50 for CC(c1ccc(-c2ccccc2)c(F)c1)c1nnc(-c2ccc(Br)cc2F)o1 (centres unmarked) on urease (Canavalia ensiformis), anyone have it?
Reply | 4.89

Ask | # returns recorded pIC50 (system: urease (Canavalia ensiformis)) for CCOc1cc(-c2nnc(C(C)c3ccc(-c4ccccc4)c(F)c3)o2)ccc1OC (centres unmarked)
Reply | 4.46

Ask | Hello, I am looking for reported pIC50 with urease (Canavalia ensiformis) for CCOc1ccc(-c2nnc(C(C)c3ccc(-c4ccccc4)c(F)c3)o2)c(OC)c1 (centres unmarked) . Could you help?
Reply | 4.13

Ask | Identify the measured pIC50 of COc1cc(-c2nnc(C(C)c3ccc(-c4ccccc4)c(F)c3)o2)cc(OC)c1Br (centres unmarked) for urease (Canavalia ensiformis).
Reply | 4.43

Ask | Fill in the recorded pIC50 for this compound, with urease (Canavalia ensiformis) as test system: CC(c1ccc(-c2ccccc2)c(F)c1)c1nnc(-c2ccccc2N)o1 (centres unmarked)
Reply | 4.80

Further cases:
Ask | Enter reported pIC50 observed with urease (Canavalia ensiformis) for COc1cccc(OC)c1-c1nnc(C(C)c2ccc(-c3ccccc3)c(F)c2)o1 (centres unmarked)
Reply | 4.51

Ask | Tell me reported pIC50 for COc1ccc(OC)c(-c2nnc(C(C)c3ccc(-c4ccccc4)c(F)c3)o2)c1 (centres unmarked) , tested with urease (Canavalia ensiformis).
Reply | 4.46

Ask | // lookup pIC50 | system=urease (Canavalia ensiformis) | key= CC(c1ccc(-c2ccccc2)c(F)c1)c1nnc(-c2ccccc2[N+](=O)[O-])o1 (centres unmarked)
Reply | 4.82

Ask | Form: Entry = CC(c1ccc(-c2ccccc2)c(F)c1)c1nnc(-c2cccc(C(F)(F)F)c2)o1 (centres unmarked) | System = urease (Canavalia ensiformis) | pIC50 = ____
Reply | 4.92

Ask | Query pIC50 on urease (Canavalia ensiformis) for COc1ccc(Br)cc1-c1nnc(C(C)c2ccc(-c3ccccc3)c(F)c2)o1 (centres unmarked)
Reply | 4.14

Ask | Missing value: pIC50, urease (Canavalia ensiformis), entry CC(c1ccc(-c2ccccc2)c(F)c1)c1nnc(-c2ccc(O)c(O)c2O)o1 (centres unmarked) . Fill in?
Reply | 4.70

Ask | Request body: readout pIC50, system urease (Canavalia ensiformis), query COc1cc(-c2nnc(C(C)c3ccc(-c4ccccc4)c(F)c3)o2)ccc1F (centres unmarked) . Return the value.
Reply | 4.80

Ask | // fetch urease (Canavalia ensiformis) pIC50 for Cc1ccc(-c2nnc(C(C)c3ccc(-c4ccccc4)c(F)c3)o2)s1 (centres unmarked)
Reply | 4.92

Ask | Record CC(c1ccc(-c2ccccc2)c(F)c1)c1nnc(-c2ccc([N+](=O)[O-])cc2)o1 (centres unmarked) : what is its pIC50 with urease (Canavalia ensiformis)?
Reply | 4.89
